Attribute: PBMC tox.: 50% tox. at (μM) av
Tested on: human PBMC
Assay: Toxicity assay under normal cell culture conditions (MTS), PBMC
Assay type: cell-based
Details: human PBMC, RPMI+10% FBS+IL-2, 72 h incubation, MTS

Param request: PBMC tox.: 50% tox. at (μM) av | system human PBMC | item CCN(CC)CCCNC(=O)c1cccc(Nc2cccc(C(=O)N(C)c3ccncc3)c2)n1 >>100 μM

Param request: PBMC tox.: 50% tox. at (μM) av | system human PBMC | item CN1CCN(CCCNC(=O)c2cccc(Nc3cccc(C(=O)N(C)c4ccncc4)c3)c2)CC1 >100 µM

Param request: PBMC tox.: 50% tox. at (μM) av | system human PBMC | item CCN(CC)CCCNC(=O)c1cccc(Nc2cc(C(=O)Nc3ccncc3)ccn2)n1 >100 µM

Param request: PBMC tox.: 50% tox. at (μM) av | system human PBMC | item CCN(CC)CCCNC(=O)c1ccnc(Nc2cc(C(=O)Nc3ccncc3)ccn2)c1 >100 µM

Param request: PBMC tox.: 50% tox. at (μM) av | system human PBMC | item CCN(CC)CCCNC(=O)c1ccnc(Nc2cccc(C(=O)N(C)c3ccncc3)c2)c1 >>100 μM

meta.source: patent US9969715B2
